All values here come from the MegaScale stability set (Tsuboyama et al. 2023).

B1: EEHEE_rd4_0469 (parent)
chain: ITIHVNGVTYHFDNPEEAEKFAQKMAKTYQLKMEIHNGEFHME

Variants of: B1
Assay: folding stability dG (cDNA display proteolysis); higher = more stable
Details: PBS, room temperature
Label Satisfied for high-side folding stability dG (at or above 0.9 kcal/mol) and Not satisfied for low-side folding stability dG (below it).

> print(dat)
                              input.sequence  assigned.category
 1  ITIHVNGVTYHFDNPEEAEKRAQKMAKTYQLKMEIHNGEFHME [F21R]      Not satisfied
 2  ITIHVNGVTYHFANPEEAEKFAQKMAKTYQLKMEIHNGEFHME [D13A]          Satisfied
 3  ITIHVNGVTYHFDNPEEAEKFAQKMAKTYQLKMEIHNGEKHME [F40K]      Not satisfied
 4  ITIHVNGVTYHFDNPEEAEKFAQKMAKTYQLKMEIHPGEFHME [N37P]      Not satisfied
 5  ITIHVNGVTYHFDNPEEAEKFAQKMAKTYQLKMEIMNGEFHME [H36M]          Satisfied
 6  ITIHVNGVTYHFDNPEEAEKFAQKMAKTYQLKMEIHNGPFHME [E39P]      Not satisfied
 7  ITIHVNGVTYHFDNPEEAKKFAQKMAKTYQLKMEIHNGEFHME [E19K]          Satisfied
 8  ITIHVNGVTYHFDNPEEAEKFAQKMAKTYQLKVEIHNGEFHME [M33V]          Satisfied
 9  ITIHVNGVTYHFDNPKEAEKFAQKMAKTYQLKMEIHNGEFHME [E16K]          Satisfied
10  ITIHVNGVTYHFFNPEEAEKFAQKMAKTYQLKMEIHNGEFHME [D13F]          Satisfied
11  ITIHVNGVTYHFDNPEEAEKFAQKMAKTYQLKMEIHNGEFAME [H41A]      Not satisfied
12  ITIHVNGVTYHFDNPEEAEKFIQKMAKTYQLKMEIHNGEFHME [A22I]          Satisfied
13  ITIHVNGVTYHFDNPEEAEKFAQFMAKTYQLKMEIHNGEFHME [K24F]          Satisfied
14  ITIHVNGVTYHFDNPEEAEKFAQKMAKTYQLKMEIHNGEFHTE [M42T]      Not satisfied
15  VTIHVNGVTYHFDNPEEAEKFAQKMAKTYQLKMEIHNGEFHME [I1V]          Satisfied
16  ATIHVNGVTYHFDNPEEAEKFAQKMAKTYQLKMEIHNGEFHME [I1A]      Not satisfied
17  IYIHVNGVTYHFDNPEEAEKFAQKMAKTYQLKMEIHNGEFHME [T2Y]          Satisfied
18  ITHHVNGVTYHFDNPEEAEKFAQKMAKTYQLKMEIHNGEFHME [I3H]      Not satisfied
19  ITIHVNGVTYHFDNPEEAEKFAQKMAKTYQLKMEIHNGEEHME [F40E]      Not satisfied
20  ITIHVNGVTYHFDNPEEAEKFAQKMAKTYQLHMEIHNGEFHME [K32H]          Satisfied
21  ITIHVNGVTYHFDNPEEAEKFAQKMAKTYQLKMRIHNGEFHME [E34R]          Satisfied
22  ITIHENGVTYHFDNPEEAEKFAQKMAKTYQLKMEIHNGEFHME [V5E]      Not satisfied
23  ITIHVNGVTYHFDNEEEAEKFAQKMAKTYQLKMEIHNGEFHME [P15E]          Satisfied
24  ITIHVNGVTYHFDNPEEAEKFAQKMAKTYQLKMELHNGEFHME [I35L]          Satisfied
25  ITIHVNGVTYHFDNPEEAEKFAQKMAKTYQLKMEIHGGEFHME [N37G]          Satisfied
26  ITIHVNGVTYHFDNPEEAEKFAQKCAKTYQLKMEIHNGEFHME [M25C]          Satisfied
27  ITIHVNGVTYHFDNPEEAEKFAQKMAKTYQSKMEIHNGEFHME [L31S]      Not satisfied
28  ITIHVNGVTYHFDNPEEAEKEAQKMAKTYQLKMEIHNGEFHME [F21E]      Not satisfied
29  ITIHVNGVTYHFDNPEEAEKNAQKMAKTYQLKMEIHNGEFHME [F21N]      Not satisfied
30  ITIGVNGVTYHFDNPEEAEKFAQKMAKTYQLKMEIHNGEFHME [H4G]      Not satisfied
31  ITIHVNGVTYHFDNPEEAEKFAQKMAKTYQLKMEDHNGEFHME [I35D]      Not satisfied
32  ITIHVNGVTYHFDNPEEAEKFAQKMAKTYQLKMEIHNGEFHMQ [E43Q]          Satisfied
33  ITIHVNGVTYHFDNHEEAEKFAQKMAKTYQLKMEIHNGEFHME [P15H]          Satisfied
34  ITIHVNRVTYHFDNPEEAEKFAQKMAKTYQLKMEIHNGEFHME [G7R]          Satisfied
35  ITIHVNGVTYHFDNPEEAEKDAQKMAKTYQLKMEIHNGEFHME [F21D]      Not satisfied
36  ITIHVNGVTYHFDNPEEAEKFAHKMAKTYQLKMEIHNGEFHME [Q23H]          Satisfied
37  ITIHVNGVTYHFDNPEEAFKFAQKMAKTYQLKMEIHNGEFHME [E19F]          Satisfied
